System tested: Calcium and integrin-binding protein 1 (Homo sapiens)
Protocol details: Primary qHTS for Identification of Calcium Integrin Binding Protein 1 (CIB1) Competitor (AID 1508620);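 also: GST tagged CIB1 binding a fluorescein labelled alphaIIb integrin peptide tracer; top concentration of the series differs between compounds; % is scaled to controls: 0 for no effect and ±100 for the full control effect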
Settings: CIB1-GST / FITC-alphaIIb peptide fluorescence polarization; series mostly up to 57.7 µM
Inconclusive results are not listed. Activity calls are given as the source filed them. Calls follow the shape of the dose curve; as a rule, active = well fitted inhibition curve with a large enough effect; inconclusive = small, poorly fitted or top-dose-only effect; inactive = flat fitted curve, though single readings scatter.
Assay readout: activity change, negative = inhibition

Nc1ccn([C@@H]2C(F)=C(CO)[C@@H](O)[C@H]2O)c(=O)n1    inactive
C[C@@H]1C(=O)O[C@H]2CC34[C@H]5C[C@@H](C(C)(C)C)C36[C@@H](OC(=O)[C@@H]6O)O[C@@]4(C(=O)O5)[C@]21O (some centres not stated)    inactive
CC(/C=C/C1(O)C2(C)COC1(C)CC(=O)C2)O[C@@H]1O[C@H](CO)[C@@H](O)[C@H](O)[C@H]1O (some centres not stated)    inactive
CC(=O)O[C@H]1[C@H](C)[C@@H](O)[C@H]2[C@@H]1C=C(C(=O)O)[C@H]1C[C@@H]3[C@H]([C@H]21)[C@H]1C(=O)O[C@@H]2CC[C@@]3(C)O[C@]1(O)[C@@H]2C    inactive
C=C1C(=O)OC2CC(C)=C(C(C)CCCO[C@@H]3O[C@H](CO)[C@@H](O)[C@H](O)[C@H]3O)C(O)C12 (some centres not stated)    inactive
CC1(C)C(O)CCC2(C)C1C(O)C=C1COC(=O)C12O (configuration not stated)    inactive

In the following, a different compound is considered.
Enquiry: Return activity change, negative = inhibition for the following compound: CC(=O)O[C@@H]1C[C@@]23C[C@@]24CC[C@H](OC2OC[C@@H](O)[C@H](O)[C@H]2O)C(C)(C)[C@@H]4CC[C@H]3[C@]2(C)CC3OC4(C[C@@H](C)C3[C@@]12C)OCC1(C)OC14 (some centres not stated)
Return: inactive

---

We begin with a simple list: items and their reported Potency.
Protocol details: Confirmatory screen GU Rhodamine qHTS for Zika virus inhibitors qHTS (AID 1347157); also: potency is read from the fitted curve at half-maximal effect; nearly all actives have a fitted effect of over 70% in size
Settings: purified enzyme assay, Rhodamine110 substrate fluorescence, 15 min
Records with an inconclusive call do not appear. Calls of active or inactive are those of the source. Calls come from the whole dose curve; as a rule, active = well fitted inhibition curve with a large enough effect; inconclusive = small, poorly fitted or top-dose-only effect; inactive = flat fitted curve, though single readings scatter.

CC(C)c1cc2c(c(O)c1O[C@@H]1O[C@H](CO)[C@@H](O)[C@H](O)[C@H]1O)CC1(O)CCC(O)C(C)(C)C1CC2 (some centres not stated)    17.1 µM (active)
Cc1nn(C)c(COc2ccc(N3CCN(S(=O)(=O)N(C)C)CC3)cc2)c1-c1cccc2c(CCCOc3cccc4ccccc34)c(C(=O)O)n(CCN3CCOCC3)c12    1.75 µM (active)
O=C(/C=C/c1c(C(=O)O)[nH]c2cc(Cl)cc(Cl)c12)Nc1ccccc1    2.78 µM (active)

Enquiry: Return Potency for the following molecule: N#CC1C(=O)Nc2scc(-c3ccc(-c4ccccc4O)cc3)c2C1=O (configuration not stated)
Return: 3.93 µM (active)

Enquiry: Return Potency for the following molecule: CCOc1ccc(-c2ccc(Cn3c(CC(C)(C)C(=O)O)c(SC(C)(C)C)c4cc(OCc5ccc(C)cn5)ccc43)cc2)cn1
Return: 1.75 µM (active)

Enquiry: Return Potency for the following molecule: COc1cccc(-n2nc(C(=O)O)cc2-c2ccc(C3CCCCC3)c(Cl)c2)c1
Return: 2.21 µM (active)

Enquiry: Return Potency for the following molecule: CC12CCC3C(C)(C)C(O)CCC3(C)C1Cc1c(oc(C(=O)O)cc1=O)O2 (configuration not stated)
Return: 24.3 µM (active)

Enquiry: Return Potency for the following molecule: CC(=O)c1c(C)cc(O)cc1O[C@@H]1O[C@H](CO)[C@@H](O)[C@H](O)[C@H]1O
Return: 30.6 µM (active)

---

System tested: Luciferin 4-monooxygenase (Photinus pyralis) (UniProt P08659)
Protocol details: Primary firefly luciferase (FLuc) qHTS assay for identification of artifact compounds. (AID 1845220); also: nearly all actives have a fitted effect of over 60% in size
Settings: purified firefly luciferase, luminescence, 5 min; series mostly up to 54.1 µM
Activity calls are given as the source filed them. Calls follow the shape of the dose curve; as a rule, active = well fitted inhibition curve with a large enough effect; inconclusive = small, poorly fitted or top-dose-only effect; inactive = flat fitted curve, though single readings scatter.
Assay readout: outcome

C[C@@H]1O[C@@H](O[C@@H]2[C@@H](O)[C@H](O[C@@H]3[C@@H](O)[C@@H](O)[C@H](O[C@H]4[C@H](OC(=O)[C@]56CCC(C)(C)C[C@H]5C5=CCC7[C@@]8(C)C[C@H](O)[C@H](O[C@@H]9O[C@H](C(=O)O)[C@@H](O)[C@H](O)[C@H]9O)[C@@](C)(CO)C8[C@H](O)C[C@@]7(C)[C@]5(C)CC6)OC[C@H](O)[C@@H]4O)O[C@H]3C)OC[C@H]2O)[C@H](O)[C@H](O)[C@H]1O (some centres not stated)    inactive [at 11.6 µM]
COC(=O)C1=COC(O[C@@H]2O[C@H](CO)[C@@H](O)[C@H](O)[C@H]2O)/C(=C\COC(=O)c2ccc(OC3OC(CO)C(O)C(O)C3O)c(OC)c2)C1CC(=O)OCCc1ccc(O)cc1 (some centres not stated)    inactive [at 11.6 µM]

---

Protocol details: Primary fluorescence-based thiol-reactive (MSTI) qHTS assay for identification of artifact compounds. (AID 1845221); also: nearly all actives have a fitted effect of over 65% in size
Settings: MSTI thiol-reactivity probe, 1 h; series mostly up to 53.8 µM
Records with an inconclusive call do not appear. Calls of active or inactive are those of the source. The call rests on the fitted dose curve; in most records, active means well fitted inhibition curve with a large enough effect; inconclusive means small, poorly fitted or top-dose-only effect; inactive means no such curve, though single readings can be large or run the other way.
Classes to choose from: 1 (yes) = active, 0 (no) = inactive

Reference set, count: 4
O=C(O[C@H]1[C@@H]2C=CO[C@@H](O[C@@H]3O[C@H](CO)[C@@H](O)[C@H](O)[C@H]3O)[C@@H]2[C@@]2(CO)O[C@@H]12)c1ccc(O)c(O)c1    1 (yes)
CC(C)c1nc(N(C)S(C)(=O)=O)nc(-c2ccc(F)cc2)c1/C=C/[C@@H](O)C[C@@H](O)CC(=O)O    0 (no)
CC1(C)C(=O)N2c3ccccc3[C@]3(CC(n4cnc5ccccc5c4=O)C(=O)O3)[C@H]2N1O (some centres undefined)    0 (no)
C=C(C(=O)O)C1CCC(C)C2CCC(=O)OC2(C)C1 (centres undefined)    1 (yes)

Enquiry: Could you kindly confirm the outcome this assay logged for CC(=O)N1c2ccccc2C2(O)CC3C(=O)NC(CC(C)C)C(=O)N3C12 (centres undefined) ?
Return: 0 (no)

Enquiry: Could you kindly confirm the outcome this assay logged for COc1cc(-c2cccc(O)c2)cc2c1OCO2 ?
Return: 1 (yes)

---

Tested on: N140
Protocol details: qHTS profiling for inhibitors of Plasmodium falciparum proliferation (AID 504749); also: nearly all actives have a fitted effect of over 60% in size
Settings: P. falciparum in erythrocytes, SYBR Green DNA, 72 h; series mostly up to 28.7 µM
Inconclusive results are not listed. Calls of active or inactive are those of the source. The call rests on the fitted dose curve; in most records, active means well fitted inhibition curve with a large enough effect; inconclusive means small, poorly fitted or top-dose-only effect; inactive means flat fitted curve, though single readings scatter.
Classes to choose from: 1 (active), -1 (inactive)

CC1(C)S[C@@H]2[C@H](NC(=O)[C@@H](NC(=O)N3CCNC3=O)c3ccccc3)C(=O)N2[C@H]1C(=O)O    -1
O=C(Nc1cccc(C(F)(F)F)c1)c1cc(Br)cc(Br)c1O    1
C=CCSSSCC=C    -1
CO[C@H]1C[C@@H]2CC[C@@H](C)[C@@](O)(O2)C(=O)C(=O)N2CCCC[C@H]2C(=O)O[C@H]([C@H](C)C[C@@H]2CC[C@@H](OCCO)[C@H](OC)C2)CC(=O)[C@H](C)/C=C(\C)[C@@H](O)[C@@H](OC)C(=O)[C@H](C)C[C@H](C)/C=C/C=C/C=C/1C    1
CC(C(=O)O)c1ccc(N2Cc3ccccc3C2=O)cc1 (centres undefined)    -1

Enquiry: Could you kindly confirm the outcome this assay logged for CCOC(C)=O ?
Return: -1

---

We begin with a simple list: items and their reported max response.
Tested on: CRL-7250
Protocol details: Cytotoxic Profiling of Annotated Libraries Using Quantitative High-Throughput Screening (AID 1296008); also: % is scaled to controls: 0 for no effect and ±100 for the full control effect; nearly all actives have a fitted effect of over 60% in size
Settings: Five cell lines viability, CellTiter-Glo ATP luminescence, 48-72 h; stronger effect = lower value
Results filed as inconclusive are left out.
Please state the figure in %; there is no need to write the unit.

Here are 5 compounds together with their reported answers.
COC(=O)C1=COC(OC2OC(CO)C(O)C(O)C2O)C2C1CC(OC(=O)C(O)CC(=O)O)C2C (centres undefined)    -2.72
O=C(/C=C/c1ccc(O)cc1)OC[C@]12O[C@H]1[C@@H](O)[C@@H]1C=CO[C@@H](O[C@@H]3O[C@H](CO)[C@@H](O)[C@H](O)[C@H]3O)[C@@H]12    -7.12
COc1cc(C(=O)OC[C@H]2O[C@H](O[C@@]3(CO)O[C@@H](CO)[C@H](O)[C@H]3O)[C@H](O)[C@@H](O)[C@@H]2O)ccc1O    -10.5
COC(=O)CC1(O)C(=O)Nc2ccccc21 (centres undefined)    3.09
CCOC(=O)N1CCC(NCCNC(=O)c2ccccc2C)CC1    3.66

Enquiry: Return max response for the following compound: CC1CCC2C(C)(C)CC(C)(CO)C2(O)C1C(=O)O (centres undefined)
Return: 0.69

Enquiry: Return max response for the following compound: CC1NC(=O)C(Cc2c[nH]c3ccccc23)NC1=O (centres undefined)
Return: 2.89

Enquiry: Return max response for the following compound: O=C(O)c1n[nH]c2c1C[C@H]1C[C@@H]21
Return: -0.338

Enquiry: Return max response for the following compound: OC[C@H]1O[C@@H](Oc2ccc3c(c2)OC[C@H]2c4cc5c(cc4O[C@@H]32)OCO5)[C@H](O)[C@@H](O)[C@@H]1O
Return: -1.83
